tested-system: delF508-CFTR (Homo sapiens, UniProt P13569, DEL508-508)
Construct: functional activity of the CFTR channel (Chloride ion transport) in patient derived primary human bronchial epithelial cells; host or cells: patient-derived primary human bronchial epithelial cells (delF508-CFTR)
method: Measurement of delF508-CFTR functional activity in primary human bronchial epithelial cells (HBECs) using Multi-Transepithelial Clamp Circuit (MTECC-24) assay
Format: cell-based
assay-conditions: primary CF HBECs; test compound added 24h before assay plus potentiator; relative to reference combination (2 μM corrector + 0.5 μM potentiator)
Structures can show the parent of a compound that is named as a salt.
assay-endpoint: MTECC24 CFHBEC- Amax % (%)

// below: answered compounds
* Cc1cccc(C)c1-c1nc(NS(=O)(=O)c2cccc(N3CCNC(=O)C3)n2)ccc1Cl [Example 131] | 78.4
* Cc1c(F)cccc1-c1nc(NS(=O)(=O)c2cccc(N3CC(C)(O)C3)n2)ccc1C(F)(F)F [Example 215] | 66.4

[I] Cc1ccc(F)cc1-c1nc(NS(=O)(=O)c2cccc(N3C[C@@H](C)N[C@@H](C)C3)n2)ccc1C(F)(F)F [Example 178, Hydrochloride]
[II] CCc1ccccc1-c1nc(NS(=O)(=O)c2cccc(N3CCCC(C)(C(=O)O)C3)n2)ccc1C(F)(F)F (stereo not shown) [Example 371]
Between I and II , whose measured MTECC24 CFHBEC- Amax % reads higher? Pick one and reply with its label.
II

---

tested-system: delF508-CFTR (Homo sapiens, UniProt P13569, DEL508-508)
Construct: functional activity of the CFTR channel (Chloride ion transport) in patient derived primary human bronchial epithelial cells; host or cells: patient-derived primary human bronchial epithelial cells (delF508-CFTR)
method: Measurement of delF508-CFTR functional activity in primary human bronchial epithelial cells (HBECs) using Multi-Transepithelial Clamp Circuit (MTECC-24) assay
Type: cell-based
assay-conditions: primary CF HBECs; test compound added 24h before assay plus potentiator; relative to reference combination (2 μM corrector + 0.5 μM potentiator)
Counter-ions that a name gives are not always drawn.
assay-endpoint: MTECC24 CFHBEC- Amax % (%)

• Cc1cccc(C)c1-c1nc(NS(=O)(=O)c2cccc(N[C@H]3C[C@H](O)C3)n2)ccc1Cl = 74.8
• COc1ccc(Cl)c(-c2nc(NS(=O)(=O)c3cccc(N4CCNCC4)n3)ccc2C(F)(F)F)c1 [Example 154, hydrochloride] = 69.5
• Cc1ccc(F)cc1-c1nc(NS(=O)(=O)c2ccnc(N3CC(O)C3)c2)ccc1Cl = 52.6
• Cc1ccccc1-c1nc(NS(=O)(=O)c2cccc(N3CCC[C@H](N)C3)n2)ccc1C(F)(F)F [Example 103, Hydrochloride] = 67.8
• CCOC(=O)C1(C)CCN(c2cccc(S(=O)(=O)Nc3ccc(Cl)c(-c4ccccc4C)n3)n2)CC1 = 62.2

[I] Nc1cccc(S(=O)(=O)Nc2ccc(Cl)c(-c3c(F)cccc3F)n2)n1
[II] Cc1ccc(F)cc1-c1nc(NS(=O)(=O)c2cccc(N3CC4CCC3CN4)n2)ccc1C(F)(F)F (stereo not drawn) [Example 201, Hydrochloride]
Please indicate which item has the smaller measured MTECC24 CFHBEC- Amax %: I versus II Please reply using the label of the selected record.
I
(I: 50.7%, II: 75.9%)

[A] Cc1cccc(C)c1-c1nc(NS(=O)(=O)c2cccc(N)n2)ccc1Br
[B] CC(C)(C)OC(=O)N1CCN(c2cccc(S(=O)(=O)Nc3ccc(C(F)(F)F)c(-c4ccccc4C4CC4)n3)n2)CC1
Of A and B , which shows the smaller MTECC24 CFHBEC- Amax % value? Your choice should be expressed through its label.
A

[P] Cc1ccccc1-c1nc(NS(=O)(=O)c2cccc(NC3CCNCC3)n2)ccc1C(F)(F)F [Example 112, Hydrochloride]
[Q] Cc1c(F)cccc1-c1nc(NS(=O)(=O)c2cccc(N3CC(O)C3)n2)ccc1C(F)(F)F
Hi, I'm comparing P with Q and wondering which one has the bigger number for MTECC24 CFHBEC- Amax %. Any idea? Record your answer as the label of the chosen record.
Q
(Q: 82.1%, P: 55.0%)

---

tested-system: delF508-CFTR (Homo sapiens, UniProt P13569, DEL508-508)
Construct: functional activity of the CFTR channel (Chloride ion transport) in patient derived primary human bronchial epithelial cells
method: Measurement of delF508-CFTR functional activity in primary human bronchial epithelial cells (HBECs) using Multi-Transepithelial Clamp Circuit (MTECC-24) assay
assay-conditions: primary CF HBECs; test compound added 24h before assay, in the presence of potentiator; mean of at least two replicates; read-out: MTECC24 CFHBEC- EC50
pEC50: −log10 of the molar value. Counter-ions that a name gives are not always drawn.
assay-endpoint: pEC50

Some entries whose results are on file:
• Cc1ccccc1-c1nc(NS(=O)(=O)c2cccc(N3CCC[C@@H](C(=O)O)C3)n2)ccc1C(F)(F)F [Example 332] = 8.32
• Cc1c(F)cccc1-c1nc(NS(=O)(=O)c2cccc(N3CC(O)C3)n2)ccc1C(F)(F)F [Example 216] = 8.32
• Cc1ccccc1-c1nc(NS(=O)(=O)c2cccc(N3CCNCC3)n2)ccc1C(F)(F)F [Example 161, (HCl Salt)] = 7.04
• Cc1ccccc1-c1nc(NS(=O)(=O)c2cccc(N[C@@H]3CCNC[C@@H]3F)n2)ccc1C(F)(F)F (relative stereo) [Example 117, Hydrochloride] = 7.48
• CC1(C(=O)O)CCN(c2cccc(S(=O)(=O)Nc3ccc(C(F)(F)F)c(-c4cccc(F)c4Cl)n3)n2)CC1 [Example 242] = 7.69

[A] Cc1ccccc1-c1nc(NS(=O)(=O)c2cccc(N[C@H]3C[C@H](O)C3)n2)ccc1C(F)(F)F [Example 284]
[B] Cc1ccc(F)cc1-c1nc(NS(=O)(=O)c2ccnc(N3CCOC[C@H]3C)c2)ccc1Cl [Example 318]
For this pair, A and B , which shows a numerically higher pEC50? Indicate your choice by writing its label.
A

---

tested-system: horseradish peroxidase (HRP) tagged delF508-CFTR (Homo sapiens, UniProt P13569, DEL508-508)
Construct: expressed in transfected cells
Sequence (P13569 with tags, fused parts or gaps DEL508-508): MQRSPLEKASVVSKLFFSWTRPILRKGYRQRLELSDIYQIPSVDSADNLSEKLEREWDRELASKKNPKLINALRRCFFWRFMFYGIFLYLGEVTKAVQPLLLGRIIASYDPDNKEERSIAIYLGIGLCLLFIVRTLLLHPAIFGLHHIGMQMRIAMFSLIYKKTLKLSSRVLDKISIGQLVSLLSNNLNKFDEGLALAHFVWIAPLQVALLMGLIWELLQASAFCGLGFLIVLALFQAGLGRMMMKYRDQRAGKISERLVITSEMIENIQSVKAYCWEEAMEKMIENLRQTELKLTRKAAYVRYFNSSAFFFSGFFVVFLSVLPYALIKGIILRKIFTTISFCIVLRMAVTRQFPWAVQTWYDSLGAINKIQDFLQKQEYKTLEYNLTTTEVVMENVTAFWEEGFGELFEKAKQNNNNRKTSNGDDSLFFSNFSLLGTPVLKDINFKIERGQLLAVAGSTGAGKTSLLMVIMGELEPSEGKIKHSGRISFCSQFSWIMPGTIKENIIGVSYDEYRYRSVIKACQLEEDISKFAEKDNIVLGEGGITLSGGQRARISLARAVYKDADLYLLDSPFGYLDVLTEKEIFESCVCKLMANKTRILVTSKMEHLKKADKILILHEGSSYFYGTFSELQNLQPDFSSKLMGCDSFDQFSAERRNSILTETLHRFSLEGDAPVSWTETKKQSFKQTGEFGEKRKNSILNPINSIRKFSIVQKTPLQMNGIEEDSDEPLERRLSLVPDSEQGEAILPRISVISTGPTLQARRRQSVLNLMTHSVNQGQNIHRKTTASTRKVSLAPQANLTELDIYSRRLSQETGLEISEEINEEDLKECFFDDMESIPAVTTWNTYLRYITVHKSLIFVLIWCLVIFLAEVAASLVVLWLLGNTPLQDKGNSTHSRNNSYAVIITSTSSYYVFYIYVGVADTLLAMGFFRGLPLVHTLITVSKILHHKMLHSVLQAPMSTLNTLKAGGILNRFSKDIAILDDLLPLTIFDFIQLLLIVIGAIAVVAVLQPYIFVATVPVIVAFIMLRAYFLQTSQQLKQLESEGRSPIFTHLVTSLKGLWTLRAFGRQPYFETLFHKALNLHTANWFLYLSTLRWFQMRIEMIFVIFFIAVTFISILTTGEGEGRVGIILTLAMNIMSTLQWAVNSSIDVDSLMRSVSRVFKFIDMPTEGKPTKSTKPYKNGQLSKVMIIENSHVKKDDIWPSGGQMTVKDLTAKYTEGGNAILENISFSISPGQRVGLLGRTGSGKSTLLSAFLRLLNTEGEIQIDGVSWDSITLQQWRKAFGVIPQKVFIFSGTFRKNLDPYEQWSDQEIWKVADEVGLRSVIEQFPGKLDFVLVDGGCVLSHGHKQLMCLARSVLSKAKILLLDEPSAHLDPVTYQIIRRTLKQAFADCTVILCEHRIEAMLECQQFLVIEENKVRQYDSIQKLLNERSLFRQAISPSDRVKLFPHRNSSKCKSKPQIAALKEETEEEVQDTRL
method: Measurement of delF508-CFTR-HRP surface expression in CFBE41o- cells
Assay type: cell-based
assay-conditions: delF508-CFTR-HRP surface expression, CFBE41o- cells; read-out: DelF508-CFTR-HRP EC50
pEC50: −log10 of the molar value. Where a name gives a salt, the structure may show the parent alone.
assay-endpoint: pEC50

# example entries with known answers
* CCOC(=O)C1(C)CCN(c2cccc(S(=O)(=O)Nc3ccc(Cl)c(-c4cc(F)ccc4C)n3)n2)CC1 | 5.56
* Cc1ccccc1-c1nc(NS(=O)(=O)c2cccc(N[C@H]3CC[C@H](C(=O)O)CC3)n2)ccc1C(F)(F)F | 5.80
* CCOC(=O)C1(C)CCN(c2cccc(S(=O)(=O)Nc3ccc(Cl)c(-c4c(C)cccc4C)n3)n2)CC1 | 5.82
* CC(C)c1ccccc1-c1nc(NS(=O)(=O)c2cccc(N)n2)ccc1Cl | 6.17
* Cc1ccc(C(F)(F)F)cc1-c1nc(NS(=O)(=O)c2cccc(N3CC(O)C3)n2)ccc1Cl | 5.72
* Cc1ccccc1-c1nc(NS(=O)(=O)c2cccc(N3CCN4C[C@@H](F)C[C@H]4C3)n2)ccc1C(F)(F)F | 5.87

[a] Cc1ccccc1-c1nc(NS(=O)(=O)c2cccc(N3CCC[C@@H](N)C3)n2)ccc1C(F)(F)F [Example 102, Hydrochloride]
[b] Cc1ccccc1-c1nc(NS(=O)(=O)c2cccc(N3CCN(C(=O)OC(C)(C)C)[C@@H](CO)C3)n2)ccc1C(F)(F)F
[c] Nc1cccc(S(=O)(=O)Nc2ccc(C(F)(F)F)c(-c3ccccc3C(F)(F)F)n2)n1
[d] COC(=O)C1(C)CCN(c2cccc(S(=O)(=O)Nc3ccc(C(F)(F)F)c(-c4ccccc4C4CC4)n3)n2)CC1
Order these by pEC50, descending, and give the full ranking. Please express your ranking as an ordered list of the labels.
d, b, c, a

---

tested-system: delF508-CFTR (Homo sapiens, UniProt P13569, DEL508-508)
Construct: functional activity of the CFTR channel (Chloride ion transport) in patient derived primary human bronchial epithelial cells; host or cells: patient-derived primary human bronchial epithelial cells (delF508-CFTR)
method: Measurement of delF508-CFTR functional activity in primary human bronchial epithelial cells (HBECs) using Multi-Transepithelial Clamp Circuit (MTECC-24) assay
Format: cell-based
assay-conditions: primary CF HBECs; test compound added 24h before assay plus potentiator; relative to reference combination (2 μM corrector + 0.5 μM potentiator)
Where a name gives a salt, the structure may show the parent alone.
assay-endpoint: MTECC24 CFHBEC- Amax % (%)

• Cc1ccc(F)cc1-c1nc(NS(=O)(=O)c2ccnc(N)c2)ccc1C(F)(F)F = 72.4

[A] Cc1cccc(C)c1-c1nc(NS(=O)(=O)c2cccc(N[C@H]3C[C@@H](O)C3)n2)ccc1Cl
[B] Cc1cccc(C)c1-c1nc(NS(=O)(=O)c2cccc(N3CCNCC3)n2)ccc1Cl [Example 163, Hydrochloride]
[C] Cc1cccc(C)c1-c1nc(NS(=O)(=O)c2cccc(O[C@H]3CC[C@H](C(=O)O)CC3)n2)ccc1Cl
Order the entries by their reported MTECC24 CFHBEC- Amax %, beginning at the minimum. Please express your ranking as an ordered list of the labels.
C, B, A
(C: 37.9%, B: 64.8%, A: 153.1%)
